Listed compounds paired with reported growth
# Tested on: HL-60(TB) leukemia
# protocol.summary: NCI-60 one-dose screen, 48 h (100 = growth as untreated, 0 = no growth, -100 = all killed)
# condition.set: 10 µM unless noted
The panel holds about 83,000 compounds, 20% with a hit somewhere; the sample as a whole holds those more often.
Please state the figure in %; there is no need to write the unit.

Solved entries (count: 3):
COc1ccc(-c2csc(N(C(=O)N3CCN(c4cc5c(cc4F)c(=O)c(C(=O)O)cn5C4CC4)CC3)c3ccccc3)n2)cc1 :: -29.6
COc1cc2nc(Cl)nc(NCCO)c2cc1OC :: 104
CC(=O)c1c(C)c2cnc(Nc3ccc(N4CCNCC4)cn3)nc2n(C2CCCC2)c1=O :: 21.8

Given CCn1c(=S)sc2c(Nc3ccc(F)cc3)nc(-c3cccnc3)nc21 , report its growth on HL-60(TB) leukemia.
81.7

Give reported growth for CCOc1ccc(/C=N\N2CCCCCC2)cc1OCC (HL-60(TB) leukemia)
92.7

// output growth; input C[C@H](NC(=O)[C@@H](C)N)[C@H](Oc1ccc2c(cnn2-c2ccc(F)cc2)c1)c1ccc2c(c1)OCCO2 ; system HL-60(TB) leukemia
25.8

Report growth on HL-60(TB) leukemia for this entry: Cn1c([N+](=O)[O-])cnc1/C=C1\Oc2ccc(Cl)cc2C1=O
-2.57

# assay system HL-60(TB) leukemia: give growth of C=C1C(=O)O[C@H]2[C@H]1CC/C(COC(=O)NCc1c[nH]c3ccc(OC)cc13)=C\CC[C@@]1(C)O[C@@H]21
-35.8

Provide measured growth on HL-60(TB) leukemia for COc1cc(C2CC(c3ccc(Cl)cc3)=NN2c2ccc(Cl)cc2)cc(OC)c1OC (centres undefined) please.
97.9

---

# Test system: HL-60(TB) leukemia
# protocol.summary: NCI-60 one-dose screen, 48 h (100 = growth as untreated, 0 = no growth, -100 = all killed)
# condition.set: 10 µM unless noted
Compounds without any hit were thinned out: in the full panel of roughly 83,000, 20% have a hit.
Kindly apply the following: label 1 if growth is less than 50%, label 0 in every other case.

Criterion: growth strictly below 50%. Is it met by CC/C=C\C[C@H](O)C/C=C1/C(=O)C(Cl)=C[C@@H]1C/C=C\CCCC(=O)O ?
label 1

---

Entries annotated with measured growth
# Tested on: HL-60(TB) leukemia
# protocol.summary: NCI-60 one-dose screen, 48 h (100 = growth as untreated, 0 = no growth, -100 = all killed)
# condition.set: 10 µM unless noted
The panel holds about 83,000 compounds, 20% with a hit somewhere; the sample as a whole holds those more often.
Numeric answer only, unit % assumed.

Example entries and their recorded answers appear below.
C[n+]1c(/C=C/c2c[nH]c3ccccc23)ccc2ccccc21 :: 73.9
CN1CCN(Cn2nc(-c3cc(Cl)cc(Cl)c3Cl)n(/N=C/c3ccc(Cl)cc3)c2=S)CC1 :: -38.6
COc1ccc(C2CC(c3ccc(Nc4nc(Nc5ccccc5)nc(Nc5ccccc5)n4)cc3)=NN2C(C)=O)cc1 (stereo not given) :: 95.1
COc1cc(-c2nnc(-c3nc(-c4cc(OC)c(OC)c(OC)c4)n4ccccc34)o2)ccc1N :: 64.8
COc1ccc(-c2oncc2-c2cc(OC)c3c(c2)OCO3)cc1 :: -6.72
COc1ccc2c(c1)c(-c1noc(C(=O)c3cn(C)c4ccc(Br)cc34)n1)cn2C :: 84.4
Clc1ccc(N/N=C/c2ccccn2)nc1 :: -15.4
O=C(Cn1cc(CN2CCCCCC2)nn1)Nc1ccc2c(ccn2Cc2ccccc2)c1 :: 92.2

Now for another entry.
Identify the reported growth for the following entry. CCNS(=O)(=O)c1ncnc2nc[nH]c12
112
